Molecular target: T1, Elastase from human neutrophils (human, UniProt P08246 30-247, limits assumed)
T1 sequence (looked up): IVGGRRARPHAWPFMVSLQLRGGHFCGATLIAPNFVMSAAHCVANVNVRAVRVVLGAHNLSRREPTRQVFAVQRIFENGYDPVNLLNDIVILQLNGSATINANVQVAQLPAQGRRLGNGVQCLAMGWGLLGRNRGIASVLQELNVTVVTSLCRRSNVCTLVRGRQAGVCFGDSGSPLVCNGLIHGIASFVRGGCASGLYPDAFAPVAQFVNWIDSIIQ
Experiment: cell-based or functional assay
Readings of % inhibition at 100 µM for the listed binders
Write the answer as a number in %, unit excluded.

binder	% inhibition at 100 µM, %
RETKSDPPIRF (HELM PEPTIDE1{R.E.T.K.S.D.P.P.I.R.F.[dP].P}$PEPTIDE1,PEPTIDE1,1:R1-13:R2$$$V2.0; SMILES CC[C@H](C)[C@@H]1NC(=O)[C@@H]2CCCN2C(=O)[C@@H]2CCCN2C(=O)[C@H](CC(=O)O)NC(=O)[C@H](CO)NC(=O)[C@H](CCCCN)NC(=O)[C@H]([C@@H](C)O)NC(=O)[C@H](CCC(=O)O)NC(=O)[C@H](CCCNC(=N)N)NC(=O)[C@@H]2CCCN2C(=O)[C@H]2CCCN2C(=O)[C@H](Cc2ccccc2)NC(=O)[C@H](CCCNC(=N)N)NC1=O) [Example 7]	1.5
XCTKSDPPICS (HELM PEPTIDE1{[Nle].C.T.K.S.D.P.P.I.C.S.[dP].P}$PEPTIDE1,PEPTIDE1,2:R3-10:R3|PEPTIDE1,PEPTIDE1,1:R1-13:R2$$$V2.0; SMILES CCCC[C@@H]1NC(=O)[C@@H]2CCCN2C(=O)[C@H]2CCCN2C(=O)[C@H](CO)NC(=O)[C@@H]2CSSC[C@H](NC1=O)C(=O)N[C@@H]([C@@H](C)O)C(=O)N[C@@H](CCCCN)C(=O)N[C@@H](CO)C(=O)N[C@@H](CC(=O)O)C(=O)N1CCC[C@H]1C(=O)N1CCC[C@H]1C(=O)N[C@@H]([C@@H](C)CC)C(=O)N2) [Example 10]	0.3
RXTKSDPPIXF (HELM PEPTIDE1{R.[Nle].T.K.S.D.P.P.I.[Nle].F.[dP].P}$PEPTIDE1,PEPTIDE1,1:R1-13:R2$$$V2.0; SMILES CCCC[C@@H]1NC(=O)[C@H](CCCNC(=N)N)NC(=O)[C@@H]2CCCN2C(=O)[C@H]2CCCN2C(=O)[C@H](Cc2ccccc2)NC(=O)[C@H](CCCC)NC(=O)[C@H]([C@@H](C)CC)NC(=O)[C@@H]2CCCN2C(=O)[C@@H]2CCCN2C(=O)[C@H](CC(=O)O)NC(=O)[C@H](CO)NC(=O)[C@H](CCCCN)NC(=O)[C@H]([C@@H](C)O)NC1=O) [Example 8]	0.8

// % inhibition at 100 µM lookup, key: FCTKXDPPICS (HELM PEPTIDE1{F.C.T.K.[NC[C@H](N[*:1])C(=O)[*:2]].D.P.P.I.C.S.[dP].P}$PEPTIDE1,PEPTIDE1,2:R3-10:R3|PEPTIDE1,PEPTIDE1,1:R1-13:R2$$$V2.0; SMILES CC[C@H](C)[C@@H]1NC(=O)[C@@H]2CCCN2C(=O)[C@@H]2CCCN2C(=O)[C@H](CC(=O)O)NC(=O)[C@H](CN)NC(=O)[C@H](CCCCN)NC(=O)[C@H]([C@@H](C)O)NC(=O)[C@@H]2CSSC[C@H](NC1=O)C(=O)N[C@@H](CO)C(=O)N1CCC[C@@H]1C(=O)N1CCC[C@H]1C(=O)N[C@@H](Cc1ccccc1)C(=O)N2) [Example 25]
3.2

// % inhibition at 100 µM lookup, key: RCTKSDPPICF (HELM PEPTIDE1{R.C.T.K.S.D.P.P.I.C.F.[dP].P}$PEPTIDE1,PEPTIDE1,2:R3-10:R3|PEPTIDE1,PEPTIDE1,1:R1-13:R2$$$V2.0; SMILES CC[C@H](C)[C@@H]1NC(=O)[C@@H]2CCCN2C(=O)[C@@H]2CCCN2C(=O)[C@H](CC(=O)O)NC(=O)[C@H](CO)NC(=O)[C@H](CCCCN)NC(=O)[C@H]([C@@H](C)O)NC(=O)[C@@H]2CSSC[C@H](NC1=O)C(=O)N[C@@H](Cc1ccccc1)C(=O)N1CCC[C@@H]1C(=O)N1CCC[C@H]1C(=O)N[C@@H](CCCNC(=N)N)C(=O)N2) [Example 75]
69.1
